Measured AMPKα1(h) % activity of individual entries
Test system: AMPKα1(h) (Homo sapiens)
Sequence (Q13131 whole entry): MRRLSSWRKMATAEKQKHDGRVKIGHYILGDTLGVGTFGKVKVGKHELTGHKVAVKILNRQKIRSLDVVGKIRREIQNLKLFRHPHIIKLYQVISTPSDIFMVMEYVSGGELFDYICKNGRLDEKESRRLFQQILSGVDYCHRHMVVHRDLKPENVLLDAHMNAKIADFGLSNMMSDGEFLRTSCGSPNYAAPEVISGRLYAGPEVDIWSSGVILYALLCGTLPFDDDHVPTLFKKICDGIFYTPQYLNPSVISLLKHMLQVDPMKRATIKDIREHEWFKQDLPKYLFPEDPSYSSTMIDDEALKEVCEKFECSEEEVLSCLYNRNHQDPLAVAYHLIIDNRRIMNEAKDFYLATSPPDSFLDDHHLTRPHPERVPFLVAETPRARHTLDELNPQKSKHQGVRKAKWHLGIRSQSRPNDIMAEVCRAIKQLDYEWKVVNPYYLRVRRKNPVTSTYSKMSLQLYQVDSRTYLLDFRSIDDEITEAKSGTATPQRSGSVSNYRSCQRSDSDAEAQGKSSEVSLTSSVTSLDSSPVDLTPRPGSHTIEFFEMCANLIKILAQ
Sequence (Q9Y478 whole entry partner): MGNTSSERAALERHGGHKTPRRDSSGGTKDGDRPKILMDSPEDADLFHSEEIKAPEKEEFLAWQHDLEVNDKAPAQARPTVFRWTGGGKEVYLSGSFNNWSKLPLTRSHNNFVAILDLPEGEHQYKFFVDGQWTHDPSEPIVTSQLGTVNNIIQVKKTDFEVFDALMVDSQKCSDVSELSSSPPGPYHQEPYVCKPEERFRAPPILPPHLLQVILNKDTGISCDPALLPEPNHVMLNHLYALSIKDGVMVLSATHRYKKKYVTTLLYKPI
Sequence (P54619 whole entry partner): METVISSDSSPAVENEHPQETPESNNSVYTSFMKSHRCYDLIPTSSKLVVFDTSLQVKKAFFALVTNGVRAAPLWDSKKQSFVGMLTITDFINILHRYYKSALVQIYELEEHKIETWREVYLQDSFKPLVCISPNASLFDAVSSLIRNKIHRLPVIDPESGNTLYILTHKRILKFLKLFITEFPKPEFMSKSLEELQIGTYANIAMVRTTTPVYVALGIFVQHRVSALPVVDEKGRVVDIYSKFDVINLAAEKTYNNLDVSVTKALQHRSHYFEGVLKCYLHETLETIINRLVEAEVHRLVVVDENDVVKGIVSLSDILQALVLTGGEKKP
Experiment: Kinase Profiling Assay
Format: biochemical
Reported conditions: 100 μM peptide
Could you give me the number in %? Just the number is fine.

1. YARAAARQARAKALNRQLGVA (Mammalian) [MMI-0200] ... 108
2. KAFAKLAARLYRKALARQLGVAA [MMI-0400] ... 87
3. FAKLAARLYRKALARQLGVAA [MMI-0300] ... 71

Proceeding to the next sequence to report its AMPKα1(h) % activity.
Challenge: Hello, I am looking for reported AMPKα1(h) % activity with AMPKα1(h) (Homo sapiens) for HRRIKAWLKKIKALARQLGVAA (Mammalian) [MMI-0500] . Could you help?
Response given: 35
